Tested on: Eimeria maxima protozoa (sporozoites)
Assay: Direct killing effect against Eimeria maxima protozoa (live sporozoites counted by microscopy)
Format: cell-based
Conditions: 3 h, read-out: Mortality rate of Eimeria maxima orozites [Killed sporozoites %]
From the text: A certain amount of oocysts (eggs) of Eimeria tenella and Eimeria maxima protozoa (College of Veterinary Medicine, Gyeongsang National University, Korea) were put in a tube containing glass beads and crushed, and then, in order to remove crushed oocyst cell walls and other debris, internal sporocysts were purified using Percoll density gradient, and washed with a PBS solution. […]
observation_type: mortality at 10 ppm
Please make sure the unit comes right after the number.

O=C(O)[C@]1(O)C[C@@H](O)[C@@H](O)[C@H](O)C1 ... 34%

Tell me measured mortality at 10 ppm for O=C(O)/C=C/c1ccc(O)c(O)c1 [Caffeic acid, caffeic acid, reference compound] please.
0%

Give the measured mortality at 10 ppm for O=C(O)/C=C/c1cccc(O)c1 [m-coumaric acid, reference compound]
6.4%

Give the measured mortality at 10 ppm for O=C(/C=C/c1ccc(O)c(O)c1)O[C@@H]1C[C@](O)(C(=O)O)C[C@@H](O)[C@H]1O [Chlorogenic acid, chlorogenic acid, reference compound]
0%

Quote mortality at 10 ppm reported for COc1cc(/C=C/C(=O)O)ccc1O [Ferulic acid, ferulic acid, reference compound] please.
0%
